- Assay comment: in vivo
- Design: species or system mice
- Test settings: male, NODSCID 1L2RγKO, mouse, iv, total radioactivity, Intestine uptake
One threshold, 0.1 %ID/g, splits the recorded tissue uptake at 72 h values: lower ones are 1, equal or higher ones are -1.

Past entries and their recorded results:
| Compound | Class name |
| --- | --- |
| COc1ccc(CCCC(=O)NCC(=O)N[C@@H](CCCCNC(=O)CN2CCN(CC(=O)O)CCN(CC(=O)O)CCN(CC(=O)O)CC2)C(=O)NC[C@H]2CC[C@H](C(=O)N[C@@H](Cc3c4ccccc4cc4ccccc34)C(=O)NCCCC[C@H](NC(=O)N[C@@H](COCC(=O)O)C(=O)O)C(=O)O)CC2)cc1 [177Lu-HTK04028, metal not drawn] | 1 |
| O=C(O)CCC[C@H](NC(=O)N[C@@H](CCCCNC(=O)[C@H](Cc1c2ccccc2cc2ccccc12)NC(=O)[C@H]1CC[C@H](CNC(=O)[C@H](CCCCNC(=O)CN2CCN(CC(=O)O)CCN(CC(=O)O)CCN(CC(=O)O)CC2)NC(=O)CNC(=O)CCCc2ccc(Cl)cc2)CC1)C(=O)O)C(=O)O [177Lu-HTK03153, metal not drawn] | -1 |
| COc1ccc(CCCC(=O)NCC(=O)N[C@@H](CCCCNC(=O)CN2CCN(CC(=O)O)CCN(CC(=O)O)CCN(CC(=O)O)CC2)C(=O)NC[C@H]2CC[C@H](C(=O)N[C@@H](Cc3c4ccccc4cc4ccccc34)C(=O)NCCCC[C@H](NC(=O)N[C@@H](CCCC(=O)O)C(=O)O)C(=O)O)CC2)cc1 [177Lu-HTK03170, metal not drawn] | -1 |
| O=C(O)CCC[C@H](NC(=O)N[C@@H](CCCCNC(=O)[C@H](Cc1c2ccccc2cc2ccccc12)NC(=O)[C@H]1CC[C@H](CNC(=O)CN2CCN(CC(=O)O)CCN(CC(=O)O)CCN(CC(=O)O)CC2)CC1)C(=O)O)C(=O)O [177Lu-HTK03149, metal not drawn] | 1 |

Consider now this further compound.
Does this compound meet the criterion tissue uptake at 72 h < 0.1 %ID/g? COc1ccc(CCCC(=O)NCC(=O)N[C@@H](CCCCNC(=O)CN2CCN(CC(=O)O)CCN(CC(=O)O)CCN(CC(=O)O)CC2)C(=O)NC[C@H]2CC[C@H](C(=O)N[C@@H](Cc3c4ccccc4cc4ccccc34)C(=O)NCCCC[C@H](NC(=O)N[C@@H](CSCC(=O)O)C(=O)O)C(=O)O)CC2)cc1 [177Lu-HTK04048, metal not drawn]
-1

###

Give measured tissue uptake at 1 h for each item. Keep answers brief.
- Assay comment: in vivo
- Test settings: male, NODSCID 1L2RγKO, mouse, iv, total radioactivity, Blood uptake
One number for each entry, in %ID/g.

Parameters: items (list). Returns: tissue uptake at 1 h for each item.
1. O=C(O)CCCCC(NC(=O)N[C@@H](CCCCNC(=O)[C@H](Cc1c2ccccc2cc2ccccc12)NC(=O)[C@H]1CC[C@H](CNC(=O)CN2CCN(CC(=O)O)CCN(CC(=O)O)CCN(CC(=O)O)CC2)CC1)C(=O)O)C(=O)O (single isomer, unassigned) [68Ga-HTK03189A, metal not drawn]
2. O=C(O)CSC[C@H](NC(=O)N[C@@H](CCCCNC(=O)[C@H](Cc1c2ccccc2cc2ccccc12)NC(=O)[C@H]1CC[C@H](CNC(=O)CN2CCN(CC(=O)O)CCN(CC(=O)O)CCN(CC(=O)O)CC2)CC1)C(=O)O)C(=O)O [68Ga-HTK03177, metal not drawn]

[0.89, 0.7]

Fill in tissue uptake at 1 h for each of the 3 compounds listed.
1. O=C(O)C[C@H](NC(=O)N[C@@H](CCCCNC(=O)[C@H](Cc1c2ccccc2cc2ccccc12)NC(=O)[C@H]1CC[C@H](CNC(=O)CN2CCN(CC(=O)O)CCN(CC(=O)O)CCN(CC(=O)O)CC2)CC1)C(=O)O)C(=O)O [68Ga-HTK03161, metal not drawn]
2. O=C(O)COC[C@H](NC(=O)N[C@@H](CCCCNC(=O)[C@H](Cc1c2ccccc2cc2ccccc12)NC(=O)[C@H]1CC[C@H](CNC(=O)CN2CCN(CC(=O)O)CCN(CC(=O)O)CCN(CC(=O)O)CC2)CC1)C(=O)O)C(=O)O [68Ga-HTK03187, metal not drawn]
3. O=C(O)CC[C@H](NC(=O)N[C@@H](CCCCNC(=O)[C@H](Cc1c2ccccc2cc2ccccc12)NC(=O)[C@H]1CC[C@H](CNC(=O)CN2CCN(CC(=O)O)CCN(CC(=O)O)CCN(CC(=O)O)CC2)CC1)C(=O)O)C(=O)O [68Ga-HTK03041, metal not drawn]

1. 1.13
2. 0.67
3. 1.43
